For each of the compounds below, state its IC50.
- protocol.description: Inhibition of Tel-fused KDR expressed in mouse BAF3 cells
I'd appreciate it if you included the unit after the number.

Entry Cc1cccc(NC(=O)c2ccc(C)c(Nc3nc4ccccc4n3-c3cc(N)ncn3)c2)c1 needs its IC50 filled in; supply it.
1020 nM

Entry Cc1ccc(C(=O)Nc2ccccc2)cc1Nc1nc2ccccc2n1-c1cc(N)ncn1 needs its IC50 filled in; supply it.
8820 nM

Entry Cc1ccc(NC(=O)c2cccc(C(F)(F)F)c2)cc1Nc1nc2ccccc2n1-c1cc(NCCCCN)ncn1 needs its IC50 filled in; supply it.
599 nM

Entry Cc1ccc(NC(=O)c2cccc(C(F)(F)F)c2)cc1Nc1nc2ccccc2n1-c1cc(NC2CCN(C)CC2)ncn1 needs its IC50 filled in; supply it.
1710 nM

Entry Cc1ccc(NC(=O)c2cccc(C(F)(F)F)c2)cc1Nc1nc2ccccc2n1-c1cc(NCCN2CCN(C)CC2)ncn1 needs its IC50 filled in; supply it.
605 nM

Entry Cc1ccc(C(=O)Nc2cccc(C(F)(F)F)c2)cc1Nc1nc2ccccc2n1-c1cc(NCCCN2CCN(C)CC2)ncn1 needs its IC50 filled in; supply it.
117 nM

Entry CCN(CC)CCCCNc1cc(-n2c(Nc3cc(NC(=O)c4cccc(C(F)(F)F)c4)ccc3C)nc3ccccc32)ncn1 needs its IC50 filled in; supply it.
885 nM

Entry Cc1ccc(NC(=O)c2cccc(C(F)(F)F)c2)cc1Nc1nc2ccccc2n1-c1cc(NCCN)ncn1 needs its IC50 filled in; supply it.
1750 nM

Entry Cc1ccc(NC(=O)c2cc(OC3CCN(C)CC3)cc(C(F)(F)F)c2)cc1Nc1nc2ccccc2n1-c1cc(N)ncn1 needs its IC50 filled in; supply it.
66 nM
